Reported Conditions: 353.15 K; 101.33 kPa; Liquid; Vibrating tube method
Observation Type: mass density (kg/m3)
Return type: number; implicit unit kg/m3.

compound="CCCCCCCCCCn1cc[n+](CCC#N)c1.[Br-] [3-(2-cyanoethyl)-1-decyl-1H-imidazolium bromide]" uom=kg/m3 value_reported=1101.9
compound="CCCCCCCCn1cc[n+](CCC#N)c1.[Br-] [3-(2-cyanoethyl)-1-octyl-1H-imidazolium bromide]" uom=kg/m3 value_reported=1139.6
compound="CCCCCCn1cc[n+](CCC#N)c1.[Br-] [3-(2-cyanoethyl)-1-hexyl-1H-imidazolium bromide]" uom=kg/m3 value_reported=1192.7

Continue with the compound presented below.
**Q:** // mass density lookup, key: CCCCn1cc[n+](CCC#N)c1.[Br-] [1-butyl-3-(2-cyanoethyl)-1H-imidazolium bromide]
**A:** 1268.2

----------
Reported Conditions: 338.15 K; 101.33 kPa; Liquid; Concentric cylinders viscometry
Observation Type: viscosity (mPa·s)
// note: answer is a bare numeric in mPa·s

Worked cases, answers included:
compound="CCCCCCCCn1cc[n+](CCC#N)c1.[Br-] [3-(2-cyanoethyl)-1-octyl-1H-imidazolium bromide]" observation_type=viscosity value_reported=1459.8
compound="CCCCCCCCCCn1cc[n+](CCC#N)c1.[Br-] [3-(2-cyanoethyl)-1-decyl-1H-imidazolium bromide]" observation_type=viscosity value_reported=2051.2
compound="CCCCn1cc[n+](CCC#N)c1.[Br-] [1-butyl-3-(2-cyanoethyl)-1H-imidazolium bromide]" observation_type=viscosity value_reported=705.8

Continue with the next compound.
**Q:** Field request: viscosity | item: CCCCCCn1cc[n+](CCC#N)c1.[Br-] [3-(2-cyanoethyl)-1-hexyl-1H-imidazolium bromide]
**A:** 805.1

----------
Examples of compounds with documented refractive index follow.
Protocol: refractive index (Na D-line) (dimensionless)
Reported Conditions: 323.15 K; 101.33 kPa; Liquid; Standard Abbe refractometry
Numbers after ± are expanded uncertainties.

compound="CCCCCCn1cc[n+](CCC#N)c1.[Br-] [3-(2-cyanoethyl)-1-hexyl-1H-imidazolium bromide]" observation_type="refractive index" value_reported="1.52354 ± 0.00037"
compound="CCCCCCCCCCn1cc[n+](CCC#N)c1.[Br-] [3-(2-cyanoethyl)-1-decyl-1H-imidazolium bromide]" observation_type="refractive index" value_reported="1.50502 ± 0.00037"
compound="CCCCn1cc[n+](CCC#N)c1.[Br-] [1-butyl-3-(2-cyanoethyl)-1H-imidazolium bromide]" observation_type="refractive index" value_reported="1.53992 ± 0.00037"

Turning to the following compound.
**Q:** What value of refractive index has been reported for the following compound? CCCCCCCCn1cc[n+](CCC#N)c1.[Br-] [3-(2-cyanoethyl)-1-octyl-1H-imidazolium bromide]
**A:** 1.50891 ± 0.00037

----------
Below, each entry is listed alongside its reported viscosity.
Reported Conditions: 318.15 K; 101.33 kPa; Liquid; Concentric cylinders viscometry
Your answer is read as mPa·s, so omit the unit and give the number.

compound="CCCCCCCCCCn1cc[n+](CCC#N)c1.[Br-] [3-(2-cyanoethyl)-1-decyl-1H-imidazolium bromide]" observation_type=viscosity value_reported=10314
compound="CCCCn1cc[n+](CCC#N)c1.[Br-] [1-butyl-3-(2-cyanoethyl)-1H-imidazolium bromide]" observation_type=viscosity value_reported=2953
compound="CCCCCCn1cc[n+](CCC#N)c1.[Br-] [3-(2-cyanoethyl)-1-hexyl-1H-imidazolium bromide]" observation_type=viscosity value_reported=3602.1

**Q:** Fill in the blank: the reported viscosity of CCCCCCCCn1cc[n+](CCC#N)c1.[Br-] [3-(2-cyanoethyl)-1-octyl-1H-imidazolium bromide] is ____.
**A:** 8302.7
